Experiment: xn = mol fraction of the nth substance listed
Settings: 303.2 K, Ring tensiometer, x2 = 0.2
PROPERTY_LABEL: surface tension liquid-gas (mN/m)

Prompt: I'd like to know its surface tension liquid-gas. The molecule in question is OCC(O)CO [glycerol] + CC(C)O
Completion: 34

Prompt: I'd like to know its surface tension liquid-gas. The molecule in question is OCC(O)CO [glycerol] + CCCCO
Completion: 27.7

Prompt: I'd like to know its surface tension liquid-gas. The molecule in question is OCC(O)CO [glycerol] + CCO
Completion: 41.4

Prompt: I'd like to know its surface tension liquid-gas. The molecule in question is OCC(O)CO [glycerol] + CCCO
Completion: 33.1

====

Conditions: 333.2 K, Ring tensiometer
PROPERTY_LABEL: surface tension liquid-gas (mN/m)

Prompt: I'd like to know its surface tension liquid-gas. The compound in question is CCCCO [butan-1-ol]
Completion: 20.3

Prompt: I'd like to know its surface tension liquid-gas. The compound in question is CCO [ethanol]
Completion: 19

Prompt: I'd like to know its surface tension liquid-gas. The compound in question is CCCO [propan-1-ol]
Completion: 20.6

[1] CC(C)O [propan-2-ol]
[2] OCC(O)CO [glycerol]
Prompt: // compare measured surface tension liquid-gas between 1 and 2 ; output the lower one Write the label of whichever entry you select.
Completion: 1

====

Test: xn = mol fraction of the nth substance listed
Settings: 323.2 K, Ring tensiometer, x2 = 0.2
PROPERTY_LABEL: surface tension liquid-gas (mN/m)

Prompt: I'd like to know its surface tension liquid-gas. The compound in question is OCC(O)CO [glycerol] + CCO
Completion: 40.7

Prompt: I'd like to know its surface tension liquid-gas. The compound in question is OCC(O)CO [glycerol] + CCCCO
Completion: 27

Prompt: I'd like to know its surface tension liquid-gas. The compound in question is OCC(O)CO [glycerol] + CC(C)O
Completion: 32.9

Prompt: I'd like to know its surface tension liquid-gas. The compound in question is OCC(O)CO [glycerol] + CCCO
Completion: 32.5

====

Experiment: xn = mol fraction of the nth substance listed
Conditions: 293.2 K, Ring tensiometer, x2 = 0.7
PROPERTY_LABEL: surface tension liquid-gas (mN/m)

Prompt: I'd like to know its surface tension liquid-gas. The compound in question is OCC(O)CO [glycerol] + CCCCO
Completion: 25.4

Prompt: I'd like to know its surface tension liquid-gas. The compound in question is OCC(O)CO [glycerol] + CCO
Completion: 26.2

Prompt: I'd like to know its surface tension liquid-gas. The compound in question is OCC(O)CO [glycerol] + CCCO
Completion: 26

Prompt: I'd like to know its surface tension liquid-gas. The compound in question is OCC(O)CO [glycerol] + CC(C)O
Completion: 23.9

====

Test: xn = mol fraction of the nth substance listed
Settings: 323.2 K, Ring tensiometer, x2 = 0.8
PROPERTY_LABEL: surface tension liquid-gas (mN/m)

Prompt: I'd like to know its surface tension liquid-gas. The compound in question is OCC(O)CO [glycerol] + CCCO
Completion: 23.6

Prompt: I'd like to know its surface tension liquid-gas. The compound in question is OCC(O)CO [glycerol] + CCCCO
Completion: 23.7

Prompt: I'd like to know its surface tension liquid-gas. The compound in question is OCC(O)CO [glycerol] + CCO
Completion: 22.8

Prompt: I'd like to know its surface tension liquid-gas. The compound in question is OCC(O)CO [glycerol] + CC(C)O
Completion: 21.2

====

Assay: xn = mol fraction of the nth substance listed
Conditions: 293.2 K, Ring tensiometer, x2 = 0.1
PROPERTY_LABEL: surface tension liquid-gas (mN/m)

Prompt: I'd like to know its surface tension liquid-gas. The molecule in question is OCC(O)CO [glycerol] + CC(C)O
Completion: 45.7

Prompt: I'd like to know its surface tension liquid-gas. The molecule in question is OCC(O)CO [glycerol] + CCCO
Completion: 41.8

[P] OCC(O)CO [glycerol] + CCO
[Q] OCC(O)CO [glycerol] + CCCCO
Prompt: Given the listed records, identify the one among P and Q with higher surface tension liquid-gas. Write the label of whichever entry you select.
Completion: P
(P: 52.9 mN/m, Q: 33.1 mN/m)

====

Experiment: xn = mol fraction of the nth substance listed
Conditions: 293.2 K, Ring tensiometer, x2 = 0.4
PROPERTY_LABEL: surface tension liquid-gas (mN/m)

Prompt: I'd like to know its surface tension liquid-gas. The compound in question is OCC(O)CO [glycerol] + CCCCO
Completion: 26.2

Prompt: I'd like to know its surface tension liquid-gas. The compound in question is OCC(O)CO [glycerol] + CCCO
Completion: 28.3

Prompt: I'd like to know its surface tension liquid-gas. The compound in question is OCC(O)CO [glycerol] + CCO
Completion: 31.9

Prompt: I'd like to know its surface tension liquid-gas. The compound in question is OCC(O)CO [glycerol] + CC(C)O
Completion: 26.7

====

Assay: xn = mol fraction of the nth substance listed
Details: 333.2 K, Ring tensiometer, x2 = 0.1
PROPERTY_LABEL: surface tension liquid-gas (mN/m)

Prompt: I'd like to know its surface tension liquid-gas. The compound in question is OCC(O)CO [glycerol] + CCCO
Completion: 40.5

[a] OCC(O)CO [glycerol] + CCCCO
[b] OCC(O)CO [glycerol] + CCO
Prompt: // compare measured surface tension liquid-gas between a and b ; output the lower one Write the label of whichever entry you select.
Completion: a
(a: 32.5 mN/m, b: 51.1 mN/m)

====

Assay: xn = mol fraction of the nth substance listed
Conditions: 293.2 K, Ring tensiometer, x2 = 0.2
PROPERTY_LABEL: surface tension liquid-gas (mN/m)

[1] OCC(O)CO [glycerol] + CCCCO
[2] OCC(O)CO [glycerol] + CCO
Prompt: Given the listed records, identify the one among 1 and 2 with higher surface tension liquid-gas. Write the label of whichever entry you select.
Completion: 2
(2: 41.7 mN/m, 1: 28 mN/m)

====

Assay: xn = mol fraction of the nth substance listed
Conditions: 323.2 K, Ring tensiometer, x2 = 0.6
PROPERTY_LABEL: surface tension liquid-gas (mN/m)

Prompt: I'd like to know its surface tension liquid-gas. The compound in question is OCC(O)CO [glycerol] + CCO
Completion: 26.3

Prompt: I'd like to know its surface tension liquid-gas. The compound in question is OCC(O)CO [glycerol] + CC(C)O
Completion: 23.5

Prompt: I'd like to know its surface tension liquid-gas. The compound in question is OCC(O)CO [glycerol] + CCCCO
Completion: 24.3

Prompt: I'd like to know its surface tension liquid-gas. The compound in question is OCC(O)CO [glycerol] + CCCO
Completion: 25.3

====

Assay: xn = mol fraction of the nth substance listed
Conditions: 303.2 K, Ring tensiometer, x2 = 0.9
PROPERTY_LABEL: surface tension liquid-gas (mN/m)

Prompt: I'd like to know its surface tension liquid-gas. The compound in question is OCC(O)CO [glycerol] + CCCCO
Completion: 24.3

Prompt: I'd like to know its surface tension liquid-gas. The compound in question is OCC(O)CO [glycerol] + CCCO
Completion: 24.1

Prompt: I'd like to know its surface tension liquid-gas. The compound in question is OCC(O)CO [glycerol] + CC(C)O
Completion: 21.4

Prompt: I'd like to know its surface tension liquid-gas. The compound in question is OCC(O)CO [glycerol] + CCO
Completion: 23.2

====

Assay: xn = mol fraction of the nth substance listed
Conditions: 293.2 K, Ring tensiometer, x2 = 0.6
PROPERTY_LABEL: surface tension liquid-gas (mN/m)

Prompt: I'd like to know its surface tension liquid-gas. The compound in question is OCC(O)CO [glycerol] + CCCCO
Completion: 25.7

Prompt: I'd like to know its surface tension liquid-gas. The compound in question is OCC(O)CO [glycerol] + CCO
Completion: 27.5

Prompt: I'd like to know its surface tension liquid-gas. The compound in question is OCC(O)CO [glycerol] + CC(C)O
Completion: 24.8

Prompt: I'd like to know its surface tension liquid-gas. The compound in question is OCC(O)CO [glycerol] + CCCO
Completion: 26.5

====

Test: xn = mol fraction of the nth substance listed
Details: 313.2 K, Ring tensiometer, x2 = 0.5
PROPERTY_LABEL: surface tension liquid-gas (mN/m)

Prompt: I'd like to know its surface tension liquid-gas. The compound in question is OCC(O)CO [glycerol] + CC(C)O
Completion: 24.6

Prompt: I'd like to know its surface tension liquid-gas. The compound in question is OCC(O)CO [glycerol] + CCCCO
Completion: 25.5

Prompt: I'd like to know its surface tension liquid-gas. The compound in question is OCC(O)CO [glycerol] + CCO
Completion: 27.9

Prompt: I'd like to know its surface tension liquid-gas. The compound in question is OCC(O)CO [glycerol] + CCCO
Completion: 26.4
